# procedure-text: Biodistribution of radiometal-DOTA-BBN conjugates in CF1 normal mice
# settings: 1 hour post-injection
assay-metric: Avg % ID/gm, Blood (% ID/gm)
Number in % ID/gm, nothing else.

Per the records, this compound ( CSCC[C@H](NC(=O)[C@H](CC(C)C)NC(=O)[C@H](Cc1cnc[nH]1)NC(=O)CNC(=O)[C@@H](NC(=O)[C@H](C)NC(=O)[C@H](Cc1c[nH]c2ccccc12)NC(=O)[C@H](CCC(N)=O)NC(=O)CN1CCN(CC(=O)O)CCN(CC(=O)O)CCN(CC(=O)O)CC1)C(C)C)C(N)=O [111In-DOTA-0-BBN[7-14]NH2] [metal not drawn] ) has Avg % ID/gm, Blood equal to 0.10

The compound listed as CSCC[C@H](NC(=O)[C@H](CC(C)C)NC(=O)[C@H](Cc1c[nH]cn1)NC(=O)CNC(=O)[C@@H](NC(=O)[C@H](C)NC(=O)[C@H](Cc1c[nH]c2ccccc12)NC(=O)[C@H](CCC(N)=O)NC(=O)CCCCNC(=O)CN1CCN(CC(=O)O)CCN(CC(=O)O)CCN(CC(=O)O)CC1)C(C)C)C(N)=O [177Lu-DOTA-5-Ava-BBN[7-14]NH2] [metal not drawn] has a reported Avg % ID/gm, Blood of 0.22

Memo: CSCC[C@H](NC(=O)[C@H](CC(C)C)NC(=O)[C@H](Cc1cnc[nH]1)NC(=O)CNC(=O)[C@@H](NC(=O)[C@H](C)NC(=O)[C@H](Cc1c[nH]c2ccccc12)NC(=O)[C@H](CCC(N)=O)NC(=O)CN1CCN(CC(=O)O)CCN(CC(=O)O)CCN(CC(=O)O)CC1)C(C)C)C(N)=O [177Lu-DOTA-0-BBN[7-14]NH2] [metal not drawn] , reported Avg % ID/gm, Blood: 0.58

Field Avg % ID/gm, Blood (entry CSCC[C@H](NC(=O)[C@H](CC(C)C)NC(=O)[C@H](Cc1c[nH]cn1)NC(=O)CNC(=O)[C@@H](NC(=O)[C@H](C)NC(=O)[C@H](Cc1c[nH]c2ccccc12)NC(=O)[C@H](CCC(N)=O)NC(=O)CCCCCCCCCCNC(=O)CN1CCN(CC(=O)O)CCN(CC(=O)O)CCN(CC(=O)O)CC1)C(C)C)C(N)=O [111In-DOTA-11-Aun-BBN[7-14]NH2] [metal not drawn] ) reads 0.34

Lab note: measured Avg % ID/gm, Blood of CSCC[C@H](NC(=O)[C@H](CC(C)C)NC(=O)[C@H](Cc1cnc[nH]1)NC(=O)CNC(=O)[C@@H](NC(=O)[C@H](C)NC(=O)[C@H](Cc1c[nH]c2ccccc12)NC(=O)[C@H](CCC(N)=O)NC(=O)CN1CCN(CC(=O)O)CCN(CC(=O)O)CCN(CC(=O)O)CC1)C(C)C)C(N)=O [149Pm-DOTA-0-BBN[7-14]NH2] was 0.00

Lab note: CSCC[C@H](NC(=O)[C@H](CC(C)C)NC(=O)[C@H](Cc1cnc[nH]1)NC(=O)CNC(=O)[C@@H](NC(=O)[C@H](C)NC(=O)[C@H](Cc1c[nH]c2ccccc12)NC(=O)[C@H](CCC(N)=O)NC(=O)CCNC(=O)CN1CCN(CC(=O)O)CCN(CC(=O)O)CCN(CC(=O)O)CC1)C(C)C)C(N)=O [177Lu-DOTA-β-Ala-BBN[7-14]NH2] [metal not drawn] gave Avg % ID/gm, Blood of 0.16

Entry under test: CSCC[C@H](NC(=O)[C@H](CC(C)C)NC(=O)[C@H](Cc1c[nH]cn1)NC(=O)CNC(=O)[C@@H](NC(=O)[C@H](C)NC(=O)[C@H](Cc1c[nH]c2ccccc12)NC(=O)[C@H](CCC(N)=O)NC(=O)CCCCNC(=O)CN1CCN(CC(=O)O)CCN(CC(=O)O)CCN(CC(=O)O)CC1)C(C)C)C(N)=O [149Pm-DOTA-5-Ava-BBN[7-14]NH2] . Its Avg % ID/gm, Blood was 0.27
